- TEST DETAILS: Human HepG2 cell viability assay in 384 well format
- Assay type: toxicity, cell-based
- Set-up: dose 125 nL, time 70.5 hour; concentration not given beside the values
- COND: HepG2 cells, read-out: Inhibition
Below, each of the compounds is paired with its reported cytotoxicity at 70.5 h value.
Give the value in % but do not write % after it.

[[record]]
compound = "Cc1nc(CN(C)C2CCN(CCc3ccccn3)C2)no1 (stereo unspecified)"
observed_property = "cytotoxicity at 70.5 h"
test_value = 24.5

[[record]]
compound = "O=C(Cn1cnc2cc3c(cc21)OCCCO3)NC1CCCCC1"
observed_property = "cytotoxicity at 70.5 h"
test_value = -1.58

[[record]]
compound = "Cc1ccc(N2CCCC(NCc3ccccn3)C2)nn1 (stereo unspecified)"
observed_property = "cytotoxicity at 70.5 h"
test_value = 25.6

[[record]]
compound = "CCc1nc(CN(C)Cc2nnc(-c3cccs3)o2)cs1"
observed_property = "cytotoxicity at 70.5 h"
test_value = -3.41

[[record]]
compound = "CN1CCN(c2ccccc2CNC(=O)Cc2ccccc2F)CC1"
observed_property = "cytotoxicity at 70.5 h"
test_value = -5.79


Then there is this compound:
Look up cytotoxicity at 70.5 h: Cc1cccc(-n2cc(C(=O)N3CCCC(n4ccnc4)C3)nn2)c1 (stereo unspecified)
15.2

###

- TEST DETAILS: Human HepG2 cell viability assay in 384 well format
- Format: toxicity, cell-based
- Design: dose 125 nL, time 70.5 hour; concentration not given beside the values
- COND: HepG2 cells, read-out: Inhibition
OBSERVED PROPERTY: cytotoxicity at 70.5 h (%)
All answers are understood in %, so give the number only.

For the compound "COCCN(Cc1ccoc1)S(=O)(=O)c1ccc(F)c(Cl)c1" , what cytotoxicity at 70.5 h is on record?
42.1

Fill in the blank: the reported cytotoxicity at 70.5 h of COc1ccc(Cl)cc1C(=O)N1CCCC(c2cc(C)[nH]n2)C1 (configuration not stated) is ____.
0.303

Form field: reported cytotoxicity at 70.5 h of "N#CCCN(Cc1cccnc1)C(=O)Cc1ccc(-n2cnnn2)cc1"
-10.6

Query: cytotoxicity at 70.5 h; subject: "Cc1ccc(CN(CCN(C)C)C(=O)Nc2cc(C(N)=O)ccc2C)s1"
21.3

Given the compound Cc1cc(NC(=O)N2CCN(C)CC2C)n(C)n1 (configuration not stated) , what is its reported cytotoxicity at 70.5 h?
-6.62

###

- TEST DETAILS: Human HepG2 cell viability assay in 384 well format
- Format: toxicity, cell-based
- Set-up: dose 125 nL, time 70.5 hour; concentration not given beside the values
- COND: HepG2 cells, read-out: Inhibition
Form field: cytotoxicity at 70.5 h (one value per entry).
Form entry: value (%) — number only.

Examples with their reported cytotoxicity at 70.5 h follow.
[[record]]
compound = "CCc1cnccc1C(=O)NC1CCN(Cc2ccccc2F)CC1"
output_unit = "%"
test_value = -6.35

[[record]]
compound = "O=C(NC[C@@]1(COc2cnccn2)C[C@@H](O)[C@@H](O)C1)C1CCCC1"
output_unit = "%"
test_value = 10.3

[[record]]
compound = "Cn1cnc2c1CCN(CCCOc1ccc(S(C)(=O)=O)cc1)C2"
output_unit = "%"
test_value = -11.2

[[record]]
compound = "c1cc(C2CCCN2CC2CCCCC2)n[nH]1 (configuration not stated)"
output_unit = "%"
test_value = -8.35

[[record]]
compound = "COc1cc(C(=O)N(CCC#N)Cc2ccccn2)cc(OC)c1C"
output_unit = "%"
test_value = -6.63

[[record]]
compound = "COc1cc(C(C)NCc2scnc2C)ccc1SC(F)F (configuration not stated)"
output_unit = "%"
test_value = -9.67

[[record]]
compound = "CC(C)(O)CN1CCN(C(=O)c2ccn(-c3cccc(F)c3)n2)CC1"
output_unit = "%"
test_value = -4.39

[[record]]
compound = "Cc1cc(C)n(C2CCCN(C(=O)c3cccc4c3OCO4)C2)n1 (configuration not stated)"
output_unit = "%"
test_value = -10.8

[[record]]
compound = "COCCC(=O)NCCc1nc2cc(-c3ccc(OC)cc3)ncn2n1"
output_unit = "%"
test_value = -6.53

[[record]]
compound = "O[C@H]1CCCC[C@@H]1N1CCN(CCCc2ccc3c(c2)OCO3)CC1"
output_unit = "%"
test_value = -6.44


Recorded cytotoxicity at 70.5 h for "O=c1cc2c(nn1CN1CCSCC1)CCC2" , please?
-19.6

Quick one: cytotoxicity at 70.5 h of N#Cc1cccc(NC2CC(=O)N(CCCc3ccccc3)C2)n1 (configuration not stated) ?
-19.4

State the recorded cytotoxicity at 70.5 h for this entry: O=C(NC1(c2nnn(CC3CCCO3)n2)CCCC1)c1ccccc1 (configuration not stated)
-4.54

Origin of the recorded values: ChEMBL document CHEMBL3507680
